- System: HOP-92 NSCLC
- PROCEDURE_DETAILS: NCI tumour cell line growth inhibition, 48 h
Think of 40 µM as a floor: if TGI stands on it or above, it is t; beneath it, f.

Some solved cases for reference:
MOLECULE | ANSWER_LABEL
COC(=O)c1c2cccccc-2c(Cc2c3cccccc-3c(C(=O)OC)c2O)c1O | t
O=C1C(c2c(O)[nH]c3ccc(Br)cc23)=Nc2ccccc21 | f
O=C(/C=C/c1ccc(C(F)(F)F)cc1)c1ccc(Nc2nc(NCCO)nc(Nc3ccc(Cl)cc3)n2)cc1 | t

Query: Textbook exercise: given the entry CCOC(=O)c1ccc(NCC#CCN2CCCCC2)cc1 , state whether its TGI is greater than or equal to 40 µM.
Reply: t

Query: Does the reported TGI for CC(C)OP(=O)(NC(=S)c1ccccc1)OC(C)C fall at or above the 40 µM mark?
Reply: t

Query: Is TGI for OCCNCNc1nc(NCNCCO)nc(N(CNCCO)CNCCO)n1 at or above 40 µM?
Reply: t

Query: Answer whether TGI of C=CCc1cccc2cc(C(=O)Nc3ccccn3)c(=N)oc12 is greater than or equal to 40 µM.
Reply: t

Query: Could you please find out whether O=C1C(=O)c2cccnc2-c2ncccc21 has TGI that meets 40 µM or exceeds it?
Reply: f

Query: Given the entry O=c1c2cc(Cl)ccc2sc2cccc(Cl)c12 , answer whether its TGI meets or surpasses 40 µM.
Reply: t

Query: Could you verify whether the entry N#CC1CCCCCCCCCCC(=O)N(CCCl)C1=O (configuration not stated) shows TGI of no less than 40 µM?
Reply: t

Query: Is it the case that C[N+]1=C(/C=C\C=C\c2ccccc2)C(C)(C)c2ccccc21 has TGI reaching or exceeding 40 µM?
Reply: f

Query: Please check the record Cc1cc2c(C)nn(Cc3ccc(Cl)cc3)c2c(C#N)c1C and state if its TGI is at or above 40 µM.
Reply: t

Query: Could you please find out whether CC1(C)OCC=CCO1 has TGI that meets 40 µM or exceeds it?
Reply: t
